systemTested: ASFV protease (pS273R) (African swine fever virus BA71V)
Construct: gene Ba71V-111
Sequence (Q00946 whole entry, looked up): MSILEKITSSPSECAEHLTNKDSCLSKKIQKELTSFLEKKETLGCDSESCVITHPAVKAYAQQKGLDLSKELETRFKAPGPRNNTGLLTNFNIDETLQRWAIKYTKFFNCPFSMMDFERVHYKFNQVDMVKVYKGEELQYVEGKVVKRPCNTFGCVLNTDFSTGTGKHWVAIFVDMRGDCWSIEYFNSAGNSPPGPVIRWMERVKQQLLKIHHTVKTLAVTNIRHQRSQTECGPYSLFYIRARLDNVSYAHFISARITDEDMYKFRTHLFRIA
protocol: biochemical
# maps each entry to its IC50
Supply the numeric figure in µM, leaving out any unit text.

Request: Which IC50 is reported with ASFV protease (pS273R) (African swine fever virus BA71V) for this entry: `C[C@@H]1O[C@@H](Oc2c(-c3cc(O)c(O)c(O)c3)oc3cc(O)cc(O)c3c2=O)[C@H](O)[C@H](O)[C@H]1O` ?
Response: 2.7

Request: Which IC50 is reported with ASFV protease (pS273R) (African swine fever virus BA71V) for this entry: O=c1c(O)c(-c2cc(O)c(O)c(O)c2)oc2cc(O)cc(O)c12 [myricetin, 3,3′,4′,5,5′,7-Hexahydroxyflavone] ?
Response: 8.4
